Biological target: DQA1*0102:DQB1*0602 (Homo sapiens, UniProt P01909+P01920, A157G/A45G/C70R/E118A/E183D/E77G/F83G/G63E/H151Q/H199R/H252R/H253Q/I129T/I235V/I88M/INS77G/K197Q/L117V/L119F/L178F/L71W/L74F/L85Q/L91A/L98M/N214S/P87R/Q116E/Q76K/R102G/R240Q/R75S/R78G/S102Y/S185I/S41F/S97I/T121G/T122I/T172A/T86R/V229M/V68A/V73E/Y34C/Y41F/Y58L)
Construct: purchased ProImmune (REVEAL technology)
Sequence (P01909 with tags, fused parts or gaps with the stated changes, other chains not shown): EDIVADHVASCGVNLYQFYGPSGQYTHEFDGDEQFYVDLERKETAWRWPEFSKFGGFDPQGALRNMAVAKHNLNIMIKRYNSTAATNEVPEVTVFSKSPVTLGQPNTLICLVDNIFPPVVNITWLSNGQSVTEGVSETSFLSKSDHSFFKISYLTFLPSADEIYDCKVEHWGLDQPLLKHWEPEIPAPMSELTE
Assay type: binding
value-kind: Stability index
Form field (numeric): enter value without unit.

Incoming: Find the recorded Stability index belonging to SGAAGAAVKGVGTMV [compound 6] and report it.
Outgoing: 0.1

Incoming: Find the recorded Stability index belonging to MNLPSIKVSWAAVTL [compound 11] and report it.
Outgoing: 9.6

Incoming: Find the recorded Stability index belonging to LTVAAWSVKTSPLNM [compound 13] and report it.
Outgoing: 0.2

Incoming: Find the recorded Stability index belonging to MNLPSTKVSWAAVTL (listed as Homo sapiens) [compound 10, Orexin DQB1*0602 fragment] and report it.
Outgoing: 0.2

Incoming: Find the recorded Stability index belonging to ALSRGFGSGIITSNA [compound 18] and report it.
Outgoing: 0.0

Incoming: Find the recorded Stability index belonging to EKATNPIVPSFDMSN [compound 7] and report it.
Outgoing: 0.0

Incoming: Find the recorded Stability index belonging to RELILYDKEEIRRIWRQANNG [Peptide #1] and report it.
Outgoing: 11.1

Incoming: Find the recorded Stability index belonging to IDPFKLLQNSQVVSL [compound 8] and report it.
Outgoing: 0.1

Incoming: Find the recorded Stability index belonging to ALNRGSGSGIITSDA [compound 17] and report it.
Outgoing: 0.0

Incoming: Find the recorded Stability index belonging to RELILYDKEEMRRIWRQANNG [compound 2] and report it.
Outgoing: 0.2

Incoming: Find the recorded Stability index belonging to LILYDKEEMRRIWRQ [compound 4] and report it.
Outgoing: 0.6

Incoming: Find the recorded Stability index belonging to VGKMIGGIGRFYIQM [compound 5] and report it.
Outgoing: 33.0

Incoming: Find the recorded Stability index belonging to LILYDKEEIRRIWRQ [Peptide #3] and report it.
Outgoing: 0.2
